Source of measurements: patent EP1366764A1

# System: rMTC 6-23 cells
# testSummary: Measurement of cytosolic Ca2+ in C-cells (fura-2)
# Type: cell-based, rat
# testParameters: rMTC 6-23 cells, fura-2; "inactive" = no increase in cytosolic Ca2+ at 1 mM or 1-5 mM (footnote); read-out: EC50 (C-CELL)
readoutKind: EC50 (µM)

| lineNotation | readoutKind | resultValue |
| --- | --- | --- |
| NCCCNCCCCNCCCNCCCNCCCNC(=O)Cc1c[nH]c2ccccc12 | EC50 | 5 |

###

# Tested on: human parathyroid cells
# testSummary: Measurement of [Ca2+]i (fura-2) in human parathyroid cells
# Type: cell-based
# testParameters: read-out: EC50 for the mobilization of intracellular Ca^2+ / increase in [Ca^2+]i; human parathyroid cells (adenoma)
readoutKind: EC50

| lineNotation | testedSystem | resultValue |
| --- | --- | --- |
| COc1cccc([C@@H](C)NCCCc2ccccc2Cl)c1 | human parathyroid cells | 3000 nM |

###

Below is a list of entries, each paired with its recorded Net (+) Charge value.
# testSummary: Net positive charge of the molecule
# Assay type: physicochemical
# testParameters: at physiological pH (pH 7.3)
readoutKind: Net (+) Charge

| lineNotation | readoutKind | resultValue |
| --- | --- | --- |
| CCC[C@@H]1C[C@@H](C(=O)N[C@@H]([C@H]2O[C@H](SC)[C@H](O)[C@@H](O)[C@H]2O)[C@@H](C)O)N(C)C1 | Net (+) Charge | +1 |
| NCCCCNCCCN | Net (+) Charge | +3 |
| NCCCN(CCCN)CCCN(CCCN)CCCCN(CCCN)CCCN(CCCN)CCCN | Net (+) Charge | +10 |
| NCCNCCNCCN | Net (+) Charge | +4 |
| NC[C@H]1O[C@H](O[C@H]2[C@H](O)[C@@H](O[C@H]3O[C@H](CO)[C@@H](O)[C@H](N)[C@H]3O)[C@H](N)C[C@@H]2N)[C@H](N)[C@@H](O)[C@@H]1O | Net (+) Charge | +5 |
| NCCNCCNCCNCCN | Net (+) Charge | +5 |
